- Tested on: human apolipoprotein B mRNA
- METHOD DESCRIPTION: Inhibition of human apolipoprotein B mRNA levels in HepG2 cells, quantitative real-time PCR
- Type: cell-based
- MEASUREMENT CONDITIONS: HepG2 cells; 150 nm oligonucleotide; variable deoxy gap position
ENDPOINT NAME: % INHIB 150 nm (%)
// note: answer is a bare numeric in %

Check out these entries, answers already filled in.
308655 (antisense AGGTTACCAGCCACATGCAG; 8-10-2 2'-MOE gapmer, phosphorothioate, chemistry not fully specified) [compound 308655]
83
308647 (antisense GCCTCAGTCTGCTTCGCACC; 4-10-6 2'-MOE gapmer, phosphorothioate, chemistry not fully specified) [compound 308647]
86
308641 (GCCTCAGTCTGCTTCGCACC; 2-10-8 MOE gapmer, phosphorothioate, chemistry not fully specified) [compound 308641]
89

Param item = 308658 (antisense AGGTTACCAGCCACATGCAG; 9-10-1 2'-MOE gapmer, phosphorothioate, chemistry not fully specified) [compound 308658] ; retrieve measured % INHIB 150 nm.
78

Param item = 308640 (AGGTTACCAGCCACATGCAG; 2-10-8 MOE gapmer, phosphorothioate, chemistry not fully specified) [compound 308640] ; retrieve measured % INHIB 150 nm.
96

Param item = 308660 (antisense TGGTAGCCTCAGTCTGCTTC; 2-10-8 2'-MOE gapmer, phosphorothioate, chemistry not fully specified) [compound 308660] ; retrieve measured % INHIB 150 nm.
92

Param item = 308644 (antisense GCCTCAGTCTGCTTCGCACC; 3-10-7 2'-MOE gapmer, phosphorothioate, chemistry not fully specified) [compound 308644] ; retrieve measured % INHIB 150 nm.
93

Param item = 308650 (antisense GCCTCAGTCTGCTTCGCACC; 6-10-4 2'-MOE gapmer, phosphorothioate, chemistry not fully specified) [compound 308650] ; retrieve measured % INHIB 150 nm.
94

Param item = 308646 (antisense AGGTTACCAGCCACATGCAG; 4-10-6 2'-MOE gapmer, phosphorothioate, chemistry not fully specified) [compound 308646] ; retrieve measured % INHIB 150 nm.
76

Param item = 308643 (antisense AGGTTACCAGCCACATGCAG; 3-10-7 2'-MOE gapmer, phosphorothioate, chemistry not fully specified) [compound 308643] ; retrieve measured % INHIB 150 nm.
96

* * *

- System: human apolipoprotein B mRNA
- METHOD DESCRIPTION: Inhibition of human apolipoprotein B mRNA levels in HepG2 cells, quantitative real-time PCR
- Format: cell-based
- MEASUREMENT CONDITIONS: Table 11 gene walk; HepG2 cells, 150 nM; averages from two experiments
In the oligonucleotide strings, read from the 5' end, every base follows the letter of its sugar. An asterisk marks phosphorothioate; unmarked linkages are phosphodiester. Other units and linkages are bracketed, terminal groups are in braces. A string of capitals states the bases alone. e = 2'-O-(2-methoxyethyl) (MOE); [5mC] = 5-methylcytosine; d = 2'-deoxy (DNA)
ENDPOINT NAME: % INHIB 150 nm (%)
// note: answer is a bare numeric in %

Check out these entries, answers already filled in.
308591 (antisense eG*e[5mC]*eA*e[5mC]*e[5mC]*dT*dT*d[5mC]*dT*dG*d[5mC]*dT*dT*dG*dA*eG*eT*eT*eA*e[5mC]) [compound 308591]
92
308607 (eA*eT*eT*eT*eG*dA*dA*dT*dG*dT*d[5mC]*dA*dT*dG*dG*eT*eA*eG*e[5mC]*e[5mC]; antisense) [compound 308607]
77

Notebook: pull reported % INHIB 150 nm for human apolipoprotein B mRNA, entry 308598 (antisense e[5mC]*e[5mC]*eT*e[5mC]*eA*dG*dT*d[5mC]*dT*dG*d[5mC]*dT*dT*d[5mC]*dG*e[5mC]*eA*e[5mC]*e[5mC]*eT) [compound 308598]
85

Notebook: pull reported % INHIB 150 nm for human apolipoprotein B mRNA, entry 308620 (eT*eG*eG*eT*eA*dG*dG*d[5mC]*dT*d[5mC]*d[5mC]*dT*dT*dT*dT*eA*eG*eG*eT*eT; antisense) [compound 308620]
88

Notebook: pull reported % INHIB 150 nm for human apolipoprotein B mRNA, entry 308603 (eG*eT*e[5mC]*eA*eT*dG*dG*dT*dA*dG*d[5mC]*d[5mC]*dT*d[5mC]*dA*eG*eT*e[5mC]*eT*eG; antisense) [compound 308603]
97

* * *

- Test system: mouse apolipoprotein B mRNA
- METHOD DESCRIPTION: Inhibition of mouse apolipoprotein B mRNA levels in primary mouse hepatocytes, real-time PCR
- Assay type: cell-based
- MEASUREMENT CONDITIONS: Table 3, 150 nM, averages from two experiments
In the oligonucleotide strings, read from the 5' end, every base follows the letter of its sugar. An asterisk marks phosphorothioate; unmarked linkages are phosphodiester. Other units and linkages are bracketed, terminal groups are in braces. A string of capitals states the bases alone. e = 2'-O-(2-methoxyethyl) (MOE); [5mC] = 5-methylcytosine; d = 2'-deoxy (DNA)
ENDPOINT NAME: % INHIB
Please answer in the form of a number followed by its unit of measurement.

147764 (eG*eT*e[5mC]*e[5mC]*e[5mC]*dT*dG*dA*dA*dG*dA*dT*dG*dT*d[5mC]*eA*eA*eT*eG*e[5mC]) [compound 147764]
97%
147495 (eG*eT*eT*eA*eG*dG*dA*d[5mC]*d[5mC]*dA*dG*dG*dG*dA*dT*eT*eG*eT*eG*eA; antisense) [compound 147495]
0%

# input for lookup
Param item = 147507 (eA*eT*eT*eG*eG*d[5mC]*dT*dT*d[5mC]*dA*dT*dT*dG*dG*d[5mC]*eA*eA*e[5mC]*eA*e[5mC]; antisense) [compound 147507] ; retrieve measured % INHIB.
81%

* * *

- Test system: human apolipoprotein B mRNA
- METHOD DESCRIPTION: Inhibition of human apolipoprotein B mRNA levels in HepG2 cells, quantitative real-time PCR
- Assay type: cell-based
- MEASUREMENT CONDITIONS: HepG2 cells treated with 150 nM of compound; averages from two experiments; quantitative real-time PCR
In the oligonucleotide strings, read from the 5' end, every base follows the letter of its sugar. An asterisk marks phosphorothioate; unmarked linkages are phosphodiester. Other units and linkages are bracketed, terminal groups are in braces. A string of capitals states the bases alone. e = 2'-O-(2-methoxyethyl) (MOE); [5mC] = 5-methylcytosine; d = 2'-deoxy (DNA)
Each entry gets NO if its % INHIB (inhibition of human apolipoprotein B mRNA levels) stays under 40%, and YES if its % INHIB (inhibition of human apolipoprotein B mRNA levels) is 40% or above.

271050 (e[5mC]*e[5mC]*eT*eG*eG*dA*dG*d[5mC]*dA*dA*dG*d[5mC]*dT*dT*d[5mC]*eA*eT*eG*eT*eA; antisense) [compound 271050]
YES
271043 (e[5mC]*e[5mC]*e[5mC]*eA*eG*dT*dG*dG*dT*dA*d[5mC]*dT*dT*dG*dT*eT*eG*eA*e[5mC]*eA; antisense) [compound 271043]
YES
301016 (e[5mC]*e[5mC]*eT*e[5mC]*eA*dG*d[5mC]*dG*dG*d[5mC]*dA*dG*d[5mC]*dA*dA*e[5mC]*e[5mC]*eG*eA*eG; antisense) [compound 301016]
YES
271033 (e[5mC]*eA*eG*eT*eA*d[5mC]*dT*dG*dT*dT*dA*dT*dG*dA*d[5mC]*eT*eA*e[5mC]*e[5mC]*e[5mC]; antisense) [compound 271033]
NO

Now for another entry.
Is it the case that 271014 (antisense e[5mC]*e[5mC]*e[5mC]*eA*eG*dA*dG*dA*dG*dG*d[5mC]*d[5mC]*dA*dA*dG*e[5mC]*eT*e[5mC]*eT*eG) [compound 271014] has % INHIB (inhibition of human apolipoprotein B mRNA levels) reaching or exceeding 40%?
YES

* * *

- System: human apolipoprotein B mRNA
- METHOD DESCRIPTION: Inhibition of human apolipoprotein B mRNA levels in HepG2 cells, quantitative real-time PCR
- Assay type: cell-based
- MEASUREMENT CONDITIONS: Table 11 gene walk; HepG2 cells, 50 nM; averages from two experiments
In the oligonucleotide strings, read from the 5' end, every base follows the letter of its sugar. An asterisk marks phosphorothioate; unmarked linkages are phosphodiester. Other units and linkages are bracketed, terminal groups are in braces. A string of capitals states the bases alone. e = 2'-O-(2-methoxyethyl) (MOE); [5mC] = 5-methylcytosine; d = 2'-deoxy (DNA)
Reported values of % INHIB 50 nm for individual entries
// note: answer is a bare numeric in %

308596 (antisense eA*eG*eT*e[5mC]*eT*dG*d[5mC]*dT*dT*d[5mC]*dG*d[5mC]*dA*d[5mC]*d[5mC]*eT*eT*e[5mC]*eT*eG) [compound 308596]
81
308598 (antisense e[5mC]*e[5mC]*eT*e[5mC]*eA*dG*dT*d[5mC]*dT*dG*d[5mC]*dT*dT*d[5mC]*dG*e[5mC]*eA*e[5mC]*e[5mC]*eT) [compound 308598]
59
308611 (eT*eT*eA*e[5mC]*e[5mC]*dA*dG*d[5mC]*d[5mC]*dA*d[5mC]*dA*dT*dG*d[5mC]*eA*eG*e[5mC]*eT*eT; antisense) [compound 308611]
59
308603 (eG*eT*e[5mC]*eA*eT*dG*dG*dT*dA*dG*d[5mC]*d[5mC]*dT*d[5mC]*dA*eG*eT*e[5mC]*eT*eG; antisense) [compound 308603]
56
308615 (e[5mC]*eT*eT*eT*eT*dA*dG*dG*dT*dT*dA*d[5mC]*d[5mC]*dA*dG*e[5mC]*e[5mC]*eA*e[5mC]*eA; antisense) [compound 308615]
45

Param item = 308589 (antisense e[5mC]*eT*eT*e[5mC]*eT*dG*d[5mC]*dT*dT*dG*dA*dG*dT*dT*dA*e[5mC]*eA*eA*eA*e[5mC]) [compound 308589] ; retrieve measured % INHIB 50 nm.
20

Param item = 308609 (e[5mC]*eA*eG*e[5mC]*e[5mC]*dA*d[5mC]*dA*dT*dG*d[5mC]*dA*dG*d[5mC]*dT*eT*e[5mC]*eA*eG*eG; antisense) [compound 308609] ; retrieve measured % INHIB 50 nm.
78

Param item = 308610 (eA*e[5mC]*e[5mC]*eA*eG*d[5mC]*d[5mC]*dA*d[5mC]*dA*dT*dG*d[5mC]*dA*dG*e[5mC]*eT*eT*e[5mC]*eA; antisense) [compound 308610] ; retrieve measured % INHIB 50 nm.
40

Param item = 308605 (eG*eA*eA*eT*eG*dT*d[5mC]*dA*dT*dG*dG*dT*dA*dG*d[5mC]*e[5mC]*eT*e[5mC]*eA*eG; antisense) [compound 308605] ; retrieve measured % INHIB 50 nm.
50

Param item = 308600 (antisense eG*eT*eA*eG*e[5mC]*d[5mC]*dT*d[5mC]*dA*dG*dT*d[5mC]*dT*dG*d[5mC]*eT*eT*e[5mC]*eG*e[5mC]) [compound 308600] ; retrieve measured % INHIB 50 nm.
72

Param item = 308620 (eT*eG*eG*eT*eA*dG*dG*d[5mC]*dT*d[5mC]*d[5mC]*dT*dT*dT*dT*eA*eG*eG*eT*eT; antisense) [compound 308620] ; retrieve measured % INHIB 50 nm.
69

Param item = 308599 (antisense eA*eG*e[5mC]*e[5mC]*eT*d[5mC]*dA*dG*dT*d[5mC]*dT*dG*d[5mC]*dT*dT*e[5mC]*eG*e[5mC]*eA*e[5mC]) [compound 308599] ; retrieve measured % INHIB 50 nm.
79
